Molecular target: cynomolgus PSMA, full-length, expressed on CHO cells (cynomolgus, UniProt A0A2K5VNZ0 1-750)
Experiment: cell-based or functional assay
Listing of recorded His-ZAP cell killing, cyno PSMA Average EC50 by entry.
Your answer is read as nM, so omit the unit and give the number.

1.11-6GS-2.15 (bispecific antibody, not shown: small tags and cut ends) EVQLLESGGGLVQPGGSLRLSCAASGFSFSSYALSWVRQAPGKGLEWVSSIGENNDTTDYADNVKGRFTISRDNSKNTLYLQMNSLRVEDTAVYYCVKDGVHWGQGTLVTVSSGGGGSGGGGSGGGGSGGGGSGGGGSGGGGSEVQLVESGGGVVQPGRSLRLSCAASGFSFSGYGLHWVRQAPGKGLEWVAYISYDKSNKYYADKVKGRFTISRDNSKNTLYLQMNSLRAEDTAVYYCAKDPAWGLRLGESSSYDFDIWGQGTMVTVSS : 0.009

Now for a further binder.
Which His-ZAP cell killing, cyno PSMA Average EC50 value belongs to 1.16-6GS-2.17 (bispecific antibody, not shown: small tags and cut ends) EVQLLESGGGLVQPGGSLRLSCAASGFSFSSYALSWVRQAPGKGLEWVSSIGENNHTTDYADTVKGRFTISRDNSKNTLYLQMNSLRVEDTAVYYCVKDGVHWGQGTLVTVSSGGGGSGGGGSGGGGSGGGGSGGGGSGGGGSEVQLVESGGGVVQPGRSLRLSCAASGFSFSGYGMHWVRQAPGKGLEWVAYISYDASNKYYADNVKGRFTISRDNSKNTLYLQMNSLRAEDTAVYYCAKDPAWGLRLGESSSYDFDIWGQGTMVTVSS ? 0.011
